Overview of recorded selectivity ratio for various molecules
- method_notes: Selectivity index, ratio of CC50 for cytotoxicity against human MT4 cells to EC50 of Anti-HIV activity against HIV-1 IIIB infected in human MT4 cells
- Type: toxicity, cell-based
- details: read-out: Ratio CC50/EC50

Worked set:
Cn1c(Cn2ccc(C(F)(F)F)c(Oc3ccc(-c4cc(F)cc(C#N)c4)cc3F)c2=O)n[nH]c1=O = 20.6
Cn1c(Cn2ccc(C(F)(F)F)c(Oc3ccc(-c4cc(F)cc(C#N)c4)cc3)c2=O)n[nH]c1=O = 5.95
Cc1cc(-c2cccc(C#N)c2)ccc1Oc1c(C(F)(F)F)ccn(Cc2n[nH]c(=O)n2C)c1=O = 20.2

q: For the molecule `Cc1cc(-c2cc(F)cc(C#N)c2)ccc1Oc1c(C(F)(F)F)ccn(Cc2n[nH]c(=O)n2C)c1=O` , what selectivity ratio is on record?
a: 17.6

* * *

- method_notes: Cytotoxicity against human MT4 cells assessed as reduction on cell growth by MTT assay
- Assay type: toxicity, cell-based
observation_type: CC50 (µM)
Provide the reading as a plain figure in µM.

Sample answers from the record:
Cc1ccc(-c2ccc(Oc3c(C(F)(F)F)ccn(Cc4n[nH]c(=O)n4C)c3=O)cc2C)cc1 = 26.6
Cn1c(Cn2ccc(C(F)(F)F)c(Oc3ccc(-c4cc(F)cc(C#N)c4)cc3)c2=O)n[nH]c1=O = 90.5

q: Given the entry `Cn1c(Cn2ccc(C(F)(F)F)c(Oc3ccc(-c4cccc(F)c4)cc3)c2=O)n[nH]c1=O` , report its measured CC50.
a: 48.3

q: Lookup `Cn1c(Cn2ccc(C(F)(F)F)c(Oc3c(F)cc(-c4cc(F)cc(C#N)c4)cc3F)c2=O)n[nH]c1=O`
a: 16.6

q: // same read-out, input: `Cn1c(Cn2ccc(C(F)(F)F)c(Oc3ccc(-c4ccc(C#N)cc4)cc3F)c2=O)n[nH]c1=O`
a: 41.8

q: Same question, `Cn1c(Cn2ccc(C(F)(F)F)c(Oc3ccc(-c4ccc(F)cc4)cc3)c2=O)n[nH]c1=O` this time
a: 36.5

q: Another compound to check: `Cn1c(Cn2ccc(C(F)(F)F)c(Oc3cc(C#N)cc(-c4ccc(F)c(C#N)c4)c3)c2=O)n[nH]c1=O`
a: 87.9

q: Similarly, `Cc1cc(-c2ccc(F)cc2)ccc1Oc1c(C(F)(F)F)ccn(Cc2n[nH]c(=O)n2C)c1=O` ?
a: 26

* * *

- method_notes: Cytotoxicity against human MT4 cells assessed as reduction on cell growth by MTT assay
- Type: toxicity, cell-based
Please respond with met when measured CC50 is strictly beneath 30 µM, and with not met in all other cases.

Cc1cc(Oc2c(C(F)(F)F)ccn(Cc3n[nH]c(=O)n3C)c2=O)ccc1-c1cc(F)cc(C#N)c1 = not met

q: Decide: CC50 of `Cc1ccc(-c2ccc(Oc3c(C(F)(F)F)ccn(Cc4n[nH]c(=O)n4C)c3=O)cc2F)cc1` strictly below 30 µM?
a: met

q: Item: `COc1cc(-c2ccc(C#N)cc2)ccc1Oc1c(C(F)(F)F)ccn(Cc2n[nH]c(=O)n2C)c1=O`
a: not met

q: `Cc1ccc(-c2ccc(Oc3c(C(F)(F)F)ccn(Cc4n[nH]c(=O)n4C)c3=O)c(Cl)c2)cc1` , same question.
a: not met

q: Try `Cc1cccc(-c2ccc(Oc3c(C(F)(F)F)ccn(Cc4n[nH]c(=O)n4C)c3=O)cc2C)c1` next.
a: met

q: Moving on to `Cc1cc(-c2cccc(C#N)c2)ccc1Oc1c(C(F)(F)F)ccn(Cc2n[nH]c(=O)n2C)c1=O`
a: met

q: Also `COc1cc(-c2ccc(F)c(C#N)c2)ccc1Oc1c(C(F)(F)F)ccn(Cc2n[nH]c(=O)n2C)c1=O` , if possible.
a: not met

q: Try this compound too: `Cn1c(Cn2ccc(C(F)(F)F)c(Oc3c(F)cc(-c4ccc(C#N)cc4)cc3F)c2=O)n[nH]c1=O`
a: met
